Data credit: ChEMBL document CHEMBL1201862

System: SW-620
assay-summary: NCI tumour cell line growth inhibition, 48 h
Activity calls are given as the source filed them. No stated cut-off is given here; in the data, active = GI50 up to about 1.1 µM and inactive = higher.
Outcomes: active, inactive

compound=[N-]=[N+]=Nc1cc(=O)[nH]c2ccccc12 target_or_system=SW-620 qualitative_label=inactive
compound="CSc1nc(=O)c(C#N)c(-c2ccccc2)n1C1OC(COC(C)=O)C(OC(C)=O)C(OC(C)=O)C1OC(C)=O (stereo unspecified)" target_or_system=SW-620 qualitative_label=inactive
compound=O=C(/C=C/c1ccc(O)c(O)c1)O[C@H]1CCCC[C@@H]1OC(=O)/C=C/c1ccc(O)c(O)c1 target_or_system=SW-620 qualitative_label=inactive
compound=COc1cc2c(/C=C3/C(=O)Nc4ccc(Cl)cc43)c(Cl)[nH]c2cc1C target_or_system=SW-620 qualitative_label=active
compound=Cc1cc(NS(=O)(=O)c2ccc(NC(=O)c3ccc4nc5ccccc5c(Nc5ccc(S(=O)(=O)N=C(N)N)cc5)c4c3)cc2)no1 target_or_system=SW-620 qualitative_label=inactive
compound=O=C(N/N=C\C(F)(F)F)c1ccncc1 target_or_system=SW-620 qualitative_label=inactive
compound=CC(=O)NNc1nc(C)c(C(=O)/C=C/c2ccc(NC(C)=O)cc2)s1 target_or_system=SW-620 qualitative_label=inactive
compound="CN(C)CC1CCCC/C1=N/OC(=O)c1ccc(Cl)c(Cl)c1 (stereo unspecified)" target_or_system=SW-620 qualitative_label=inactive
compound=N/C(=N/c1ccc(O)cc1)S(=O)(=O)O target_or_system=SW-620 qualitative_label=inactive
compound="Cc1ccc(S(=O)(=O)OCC23CCC(C4CC42)C2CC23)cc1 (stereo unspecified)" target_or_system=SW-620 qualitative_label=inactive
compound=CCN(CC)c1c(C(C)(C)C)c(=O)n2ccsc2c1OC(C)=O target_or_system=SW-620 qualitative_label=inactive
compound=S=C(NCc1ccccc1)c1nc[nH]c1C(=S)NCc1ccccc1 target_or_system=SW-620 qualitative_label=inactive
compound="COc1cc([C@@H]2c3cc4c(cc3[C@@H](NCc3ccccc3F)C3COC(=O)[C@@H]32)OCO4)cc(OC)c1O (stereo partly specified)" target_or_system=SW-620 qualitative_label=active
compound="O=C1CC(Nc2ccccc2)c2c(Cl)sc(Cl)c21 (stereo unspecified)" target_or_system=SW-620 qualitative_label=active
compound=COc1ccc(-n2nnc3c(C#N)c(-c4ccccc4)c(C)n3c2=O)cc1 target_or_system=SW-620 qualitative_label=inactive
compound=O=C1CCCC/C1=C\c1ccc(Br)cc1 target_or_system=SW-620 qualitative_label=inactive
